tested-target: Hexim1 full-length (human, UniProt O94992 1-359)
Sequence (O94992 whole entry): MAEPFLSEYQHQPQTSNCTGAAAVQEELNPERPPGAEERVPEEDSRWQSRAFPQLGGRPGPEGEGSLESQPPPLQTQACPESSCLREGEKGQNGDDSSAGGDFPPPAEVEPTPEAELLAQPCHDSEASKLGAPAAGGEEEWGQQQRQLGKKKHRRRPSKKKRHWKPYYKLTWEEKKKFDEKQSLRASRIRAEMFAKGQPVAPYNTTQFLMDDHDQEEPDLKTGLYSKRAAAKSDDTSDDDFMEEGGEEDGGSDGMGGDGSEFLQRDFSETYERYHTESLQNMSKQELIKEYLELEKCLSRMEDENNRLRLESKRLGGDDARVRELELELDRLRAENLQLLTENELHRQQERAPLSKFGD
assay-protocol: ITC; N=0.49; ITC: 20 mM HEPES pH 7.5, 150 mM KCl, 1 mM TCEP, 295 K; NMR: 50 mM Na phosphate pH 6.2, 150 mM KCl, 0.02% NaN3, 5% D2O, 298 K; EMSA: binding buffer (20 mM HEPES)
condition-context: protein: recombinant; tags: MBP-His6 removed by TEV; non-native N-terminal G remains; chain copies: 2; hairpin
metric-name: Kd (µM)
Respond numerically; units are µM and should not be typed.

Qu. Dear colleague, I am looking for the recorded Kd of the following binder: GGAUGUGAGGGCGAUCUGGCUUCGGCCUUCCUCCCUCACCGCUCCA (structured_RNA) [7SK SL1-p]
Ans. 2.21
